Test system: NCI-H226
ASSAY DETAILS: NCI tumour cell line growth inhibition, 48 h
Active and inactive are the calls of the source. No stated cut-off is given here; in the data, active = GI50 up to about 1.1 µM and inactive = higher.
MEASURED METRIC: GI50

Solved entries (count: 3):
COc1ccc(NC(=O)/C(=N/NC(N)=S)C2C(=O)NC(=S)NC2=O)c(OC)c1 | > 100 µM (inactive)
CCCCCCN1C(=O)CC(=O)N(CCCCCC)S1(=O)=O | 26.6 µM (inactive)
N#C[BH2-][n+]1cn(C2CC(O)C(COP(=O)(O)OC3CC(n4ccc(N)nc4=O)OC3CO)O2)c2nc(N)[nH]c(=O)c21 (stereo not given) | > 100 µM (inactive)

Which value of GI50 has been reported for `CN1CCN(CCCBr)CC1` in the records?
> 100 µM (inactive)

Which value of GI50 has been reported for `Nc1nnc2nc(CC(=O)/C=C/c3ccccc3)c(=O)[nH]n12` in the records?
> 100 µM (inactive)

---

Tested on: A549
ASSAY DETAILS: NCI tumour cell line growth inhibition, 48 h
Calls of active or inactive are those of the source. Cut-off read from the data, not from the text of the source: active = GI50 up to about 1.1 µM and inactive = higher. Non-standard residues stand in square brackets, D forms with d. Residues, ends and D or L forms follow the SMILES beside them. ξ: configuration not given here. *: point of attachment. ξHyp = O=C(O)C1CC(O)CN1; Cbz = O=C(OCc1ccccc1)*
MEASURED METRIC: GI50

C[n+]1c2ccccc2c(C(=O)NC(CCCNC(=N)N)C(=O)O)c2ccccc21 (stereo not given) | > 100 µM (inactive)

Which value of GI50 has been reported for NC(=O)CNC(=O)C1CC(O)CN1C(=O)OCc1ccccc1 (stereo not given) (Cbz-[ξHyp]-Gly-NH2) in the records?
> 100 µM (inactive)

Which value of GI50 has been reported for `Cc1cc(C)c(S(=O)(=O)N(CCCN)OCCON(CCCN)S(=O)(=O)c2c(C)cc(C)cc2C)c(C)c1` in the records?
3.31 µM (inactive)

Which value of GI50 has been reported for CC(=O)O[C@]12CCCCCCC1C1(O)C(O)CCC[C@H]12 (stereo not given in full) in the records?
> 100 µM (inactive)

Which value of GI50 has been reported for `O=C1Nc2ccccc2/C1=N/Nc1ncccc1[N+](=O)[O-]` in the records?
18 µM (inactive)

Which value of GI50 has been reported for `C=C1CC[C@@H](C)[C@](C)(CCc2ccoc2)C/C=C\C=C/1C(=O)O` in the records?
36.2 µM (inactive)

Which value of GI50 has been reported for `CCN(CC)CCOc1ccc(N2C(=O)c3cc(OC)c(OC)cc3C2=O)cc1` in the records?
> 100 µM (inactive)

---

Recorded GI50 for the following molecules
Test system: M14
ASSAY DETAILS: NCI tumour cell line growth inhibition, 48 h
Calls of active or inactive are those of the source. No stated cut-off is given here; in the data, active = GI50 up to about 1.1 µM and inactive = higher.

Solved entries (count: 6):
O=C(OC1C2OC(=O)c3cc(O)c(O)c(O)c3Oc3cc4c(c(O)c3O)-c3c(cc(O)c(O)c3O)C(=O)OCC3OC(O)C(OC(=O)c5cc(O)c(O)c(O)c5Oc5cc6c(c(O)c5O)-c5c(cc(O)c(O)c5O)C(=O)OC1C(COC6=O)OC2O)C(OC(=O)c1cc(O)c(O)c(O)c1)C3OC4=O)c1cc(O)c(O)c(O)c1 (centres undefined) | 35.2 µM (inactive)
Cc1ccc2c(c1)c1ccc3c(c1n2C)C(=O)C=CC3=O | 2.05 µM (inactive)
O=C1Nc2ccccc2/C1=N/Nc1ncccc1[N+](=O)[O-] | 16.3 µM (inactive)
CC(C)N(C(=O)C1(C)CC1)C(C)C | > 100 µM (inactive)
O/N=C\c1c(O)ccc2ccccc12 | 68.2 µM (inactive)
C/N=C1\S/C(=N\c2ccc(N(C)C)cc2)N1C | 33.1 µM (inactive)

Which value of GI50 has been reported for O=C(NC1=C(Cl)C(=O)c2ccccc2C1=O)C(=O)C(C(=O)c1ccc2ccccc2c1)C1OC(=O)c2ccccc21 (centres undefined) in the records?
2.18 µM (inactive)

Which value of GI50 has been reported for O=C(O)CCC(NC(=O)c1ccc(OCc2nc3cc(C(F)(F)F)ccc3nc2-c2ccccc2)cc1)C(=O)O (centres undefined) in the records?
> 100 µM (inactive)

Which value of GI50 has been reported for CCCCCCCCCCCCCC(=O)OCC1OC(=O)C(O)C1O (centres undefined) in the records?
> 100 µM (inactive)

---

System: A549
ASSAY DETAILS: NCI tumour cell line growth inhibition, 48 h
The source made the active and inactive calls. No stated cut-off is given here; in the data, active = GI50 up to about 1.1 µM and inactive = higher.
// one of active, inactive, no free text

Examples with answers:
CC(=O)NC(CCCN)C(=O)NCc1ccccc1 (configuration not stated) | inactive
CC(=O)OC1C(O)C(C)OC(OC2C(OC(=O)C3CCC4C(C3)OC3(CC(OC(=O)/C=C/c5ccccc5)C(C)CO3)C43CO3)OC(C)C(O)C2OC(C)=O)C1O (configuration not stated) | active

Here is another compound to look at.
Which outcome was entered for the compound `S=C1Cc2c([nH]c3ccccc23)-c2ccccc2N1` in this test?
inactive

---

Test system: MOLT-4
ASSAY DETAILS: NCI tumour cell line growth inhibition, 48 h
Activity calls are given as the source filed them. No stated cut-off is given here; in the data, active = GI50 up to about 1.1 µM and inactive = higher.
Recorded GI50 for the following molecules

CCOC(=O)NC(Nc1ccc(F)cc1F)(C(F)(F)F)C(F)(F)F | > 100 µM (inactive)
N#CC1(C#N)C2CCCCC23OC(=N)C1(C#N)C(c1ccco1)O3 (stereo unspecified) | 23 µM (inactive)

Which value of GI50 has been reported for CCc1cc2c(cc1CCCC(=O)O)CC1(Cc3ccc(C(=O)O)cc3C1)C2 (stereo unspecified) in the records?
> 100 µM (inactive)

Which value of GI50 has been reported for CC1CCc2c(sc3ncnc(N/N=C/c4ccc(Cl)cc4)c23)C1 (stereo unspecified) in the records?
20.6 µM (inactive)

Which value of GI50 has been reported for `Nc1nc(N)c2ncn(Cc3c(Cl)cccc3Cl)c2n1` in the records?
> 100 µM (inactive)

Which value of GI50 has been reported for `Cc1c2ccccc2c(C)n2c1nc1cc(Cl)c(Cl)cc12` in the records?
2.93 µM (inactive)

---

System: MCF7
ASSAY DETAILS: NCI tumour cell line growth inhibition, 48 h
Activity calls are given as the source filed them. No stated cut-off is given here; in the data, active = GI50 up to about 1.1 µM and inactive = higher.
Recorded GI50 for the following molecules

Solved entries (count: 5):
C=CCOc1ccccc1/N=N/C(C#N)=N\Nc1ccccc1OCC=C | > 100 µM (inactive)
NC(N)=NCCC[C@H](N)C(=O)NCC(=O)N[C@@H](CC(=O)O)c1ncc(NC(=O)C(F)(F)F)o1 | > 25 µM (inactive)
CCSc1cc(=O)n(C)c(=O)n1C | > 100 µM (inactive)
COc1ccc(NC(=S)Nc2cc(C)cc(C)n2)cc1 | > 100 µM (inactive)
CCC(=O)N1NC(=O)C(CC)(CC)C1=O | > 100 µM (inactive)

Which value of GI50 has been reported for Cc1oc2c(c1C)S(=O)(=O)C(C#N)C(c1ccccc1)N2 (stereo unspecified) in the records?
51.5 µM (inactive)

---

System: SF-295
ASSAY DETAILS: NCI tumour cell line growth inhibition, 48 h
Active and inactive are the calls of the source. No stated cut-off is given here; in the data, active = GI50 up to about 1.1 µM and inactive = higher.
MEASURED METRIC: GI50

O=C(Cn1c2ccc(Br)cc2c2nc3ccccc3nc21)N/N=C/c1ccccc1 | 16.3 µM (inactive)
[O-][S+](Cc1cnc2ccccc2c1)c1nc2ccccc2nc1-c1cccs1 (configuration not stated) | 25.5 µM (inactive)
CNC(=O)OC1/C(C)=C\C(C)C(O)C(OC)CC(C)CC2=C(OC)C(=O)C=C(C2=O)N(C)C(=O)/C(C)=C/C=C\C1OC (configuration not stated) | 24.4 µM (inactive)

Which value of GI50 has been reported for `O=P(O)(CN1CCN(CP(=O)(O)c2ccccc2)CCN(CP(=O)(O)c2ccccc2)CC1)c1ccccc1` in the records?
> 100 µM (inactive)

Which value of GI50 has been reported for `Cc1ccc(S(=O)(=O)N2CCCCN(S(=O)(=O)c3ccc(C)cc3)Cc3ccccc3OCCOCCOc3c4cccc3Cc3cccc5c3OCCOCCOc3ccccc3CN(S(=O)(=O)c3ccc(C)cc3)CCCN(S(=O)(=O)c3ccc(C)cc3)Cc3ccccc3OCCOCCOc3c(cccc3C4)Cc3cccc(c3OCCOCCOc3ccccc3C2)C5)cc1` in the records?
> 100 µM (inactive)

Which value of GI50 has been reported for [O-][S+](Cc1ccccn1)c1nc2ccccc2nc1-c1ccccc1 (configuration not stated) in the records?
27.9 µM (inactive)

Which value of GI50 has been reported for `CC/C(CC(=O)CCC(=O)Nc1c(C)cccc1C)=N\NC(=O)NN` in the records?
> 100 µM (inactive)

---

Test system: OVCAR-4
ASSAY DETAILS: NCI tumour cell line growth inhibition, 48 h
Activity calls are given as the source filed them. Rule as the data show it: active = GI50 up to about 1.1 µM and inactive = higher.
Recorded GI50 for the following compounds

Solved entries (count: 10):
N#CC1=C(Nc2ccccc2)SC=C(c2ccccc2)N=C1NCc1ccccc1 | > 100 µM (inactive)
CCNC(=O)/C=C/CCC#Cc1ccc(-c2ccc(-c3cccs3)s2)s1 | > 100 µM (inactive)
O=S(=O)(O)c1cc2ccc1/C=C\c1ccc(cc1S(=O)(=O)O)/N=N\c1ccc(c(S(=O)(=O)O)c1)/C=C\c1ccc(cc1S(=O)(=O)O)/N=N\2 | > 86.1 µM (inactive)
COc1ccc(/C=C2\CCS(=O)(=O)c3ccccc3C2=O)cc1OC | 17.9 µM (inactive)
COc1c(O)ccc(C2=Cc3ccc(O)cc3OC2)c1OC | 23.9 µM (inactive)
Cn1c2ccccc2c(=O)c2cccc(C(=O)NC(CCCNC(=N)N)C(=O)O)c21 (stereo not given) | > 100 µM (inactive)
Cc1ccc(S(=O)(=O)n2ccn3c(=O)cc(C)nc23)cc1 | > 10 µM (inactive)
CSCCC(NC(=O)Cc1ccc(C(=O)c2ccccc2)cc1)C(=O)N1CCN(CCCCN2c3ccccc3Sc3cc(N=[N+]=[N-])ccc32)CC1 (stereo not given) | 16.5 µM (inactive)
O=C1CC(n2cccc2)c2cc(Br)sc21 (stereo not given) | > 100 µM (inactive)
CC(C)N(C(=O)C1(C)CC1)C(C)C | > 100 µM (inactive)

Recorded GI50 for `COc1cc([C@@H]2c3cc4c(c(O[C@@H]5O[C@H]6CO[C@@H](C)O[C@H]6[C@H](O)[C@@H]5O)c3C[C@H]3COC(=O)[C@@H]32)OCO4)cc(OC)c1O` with OVCAR-4, please?
9.16 µM (inactive)

Recorded GI50 for `COC(=O)c1cc2c3ccccc3n(C(C)=O)c2cn1` with OVCAR-4, please?
60 µM (inactive)

Recorded GI50 for `CC(=O)NNc1nc(-c2ccc([N+](=O)[O-])cc2)c(C#N)c(=O)n1C` with OVCAR-4, please?
20.1 µM (inactive)

Recorded GI50 for C[C@@]1(Br)C[C@@](C)(Cl)[C@@H](Br)CC1/C=C/Cl (stereo not given in full) with OVCAR-4, please?
24.8 µM (inactive)

Recorded GI50 for CC(=O)O[C@]12CCCCCCC1C1(O)C(O)CCC[C@H]12 (stereo not given in full) with OVCAR-4, please?
> 100 µM (inactive)

The measured values listed here are drawn from ChEMBL document CHEMBL1201862.
